- Protocol Description: 24 h therapeutic monitoring and noncompartmental pharmacokinetics in chronic lymphocytic leukemia patients receiving IBR
- Measurement Conditions: human, plasma, oral, 420 mg/day, Conc., subj=2 (420 mg IBR per day), 4 h postdose
Assay Endpoint: concentration at 4 h (nM)
Just the number please, in nM, no unit attached.

Query: Looking for the measured concentration at 4 h of Nc1ncnc2c1c(-c1ccc(Oc3ccccc3)cc1)nn2[C@@H]1CCCN(C(=O)C(O)CO)C1 (stereo partly shown) [Dihydrodiol Ibrutinib] , can you help?
Reply: 172

----------
- Protocol Description: 24 h therapeutic monitoring and noncompartmental pharmacokinetics in chronic lymphocytic leukemia patients receiving IBR
- Measurement Conditions: human, plasma, oral, 280 mg/day, Conc., subj=3 (280 mg IBR per day), 4 h postdose
Assay Endpoint: concentration at 4 h (nM)
Just the number please, in nM, no unit attached.

Query: Looking for the measured concentration at 4 h of Nc1ncnc2c1c(-c1ccc(Oc3ccccc3)cc1)nn2[C@@H]1CCCN(C(=O)C(O)CO)C1 (stereo partly shown) [Dihydrodiol Ibrutinib] , can you help?
Reply: 113

----------
- Protocol Description: 24 h therapeutic monitoring and noncompartmental pharmacokinetics in chronic lymphocytic leukemia patients receiving IBR
- Measurement Conditions: human, plasma, oral, 420 mg, cmax, Patient 1, 420 mg IBR per day, steady state
Assay Endpoint: Cmax
Please make sure the unit comes right after the number.

Query: Looking for the measured Cmax of Nc1ncnc2c1c(-c1ccc(Oc3ccccc3)cc1)nn2[C@@H]1CCCN(C(=O)C(O)CO)C1 (stereo partly shown) [Dihydrodiol Ibrutinib] , can you help?
Reply: 185 nM

----------
- Protocol Description: 24 h therapeutic monitoring and noncompartmental pharmacokinetics in chronic lymphocytic leukemia patients receiving IBR
- Measurement Conditions: human, plasma, oral, 420 mg, AUCLST AUC to Last Nonzero Conc, subj=2 (420 mg IBR per day), steady state
Assay Endpoint: AUC

Query: Looking for the measured AUC of Nc1ncnc2c1c(-c1ccc(Oc3ccccc3)cc1)nn2[C@@H]1CCCN(C(=O)C(O)CO)C1 (stereo partly shown) [Dihydrodiol Ibrutinib] , can you help?
Reply: 2.53 µM·h

----------
- Protocol Description: 24 h therapeutic monitoring and noncompartmental pharmacokinetics in chronic lymphocytic leukemia patients receiving IBR
- Measurement Conditions: human, plasma, oral, 420 mg, cmax, Patient 2, 420 mg IBR per day, steady state
Assay Endpoint: Cmax (nM)
Just the number please, in nM, no unit attached.

Query: Looking for the measured Cmax of Nc1ncnc2c1c(-c1ccc(Oc3ccccc3)cc1)nn2[C@@H]1CCCN(C(=O)C(O)CO)C1 (stereo partly shown) [Dihydrodiol Ibrutinib] , can you help?
Reply: 254

----------
- Protocol Description: 24 h therapeutic monitoring and noncompartmental pharmacokinetics in chronic lymphocytic leukemia patients receiving IBR
- Measurement Conditions: human, plasma, oral, 420 mg, LAMZHL Half-Life Lambda z, subj=1 (420 mg IBR per day), steady state
Assay Endpoint: half-life (h)
Just the number please, in h, no unit attached.

Query: Looking for the measured half-life of Nc1ncnc2c1c(-c1ccc(Oc3ccccc3)cc1)nn2[C@@H]1CCCN(C(=O)C(O)CO)C1 (stereo partly shown) [Dihydrodiol Ibrutinib] , can you help?
Reply: 10.1

----------
- Protocol Description: 24 h therapeutic monitoring and noncompartmental pharmacokinetics in chronic lymphocytic leukemia patients receiving IBR
- Measurement Conditions: human, plasma, oral, 420 mg, CMAX Max Conc, subj=2 (420 mg IBR per day), steady state
Assay Endpoint: Cmax (nM)
Just the number please, in nM, no unit attached.

Query: Looking for the measured Cmax of Nc1ncnc2c1c(-c1ccc(Oc3ccccc3)cc1)nn2[C@@H]1CCCN(C(=O)C(O)CO)C1 (stereo partly shown) [Dihydrodiol Ibrutinib] , can you help?
Reply: 254

----------
- Protocol Description: 24 h therapeutic monitoring and noncompartmental pharmacokinetics in chronic lymphocytic leukemia patients receiving IBR
- Measurement Conditions: human, plasma, oral, 280 mg, MRTEVLST MRT Extravasc to Last Nonzero Conc, subj=3 (280 mg IBR per day), steady state
Assay Endpoint: MRT (h)
Just the number please, in h, no unit attached.

Query: Looking for the measured MRT of Nc1ncnc2c1c(-c1ccc(Oc3ccccc3)cc1)nn2[C@@H]1CCCN(C(=O)C(O)CO)C1 (stereo partly shown) [Dihydrodiol Ibrutinib] , can you help?
Reply: 4.54

----------
- Protocol Description: 24 h therapeutic monitoring and noncompartmental pharmacokinetics in chronic lymphocytic leukemia patients receiving IBR
- Measurement Conditions: human, plasma, oral, 280 mg, ke, Patient 3, 280 mg IBR per day, steady state
Assay Endpoint: k el (s⁻¹)
Just the number please, in s⁻¹, no unit attached.

Query: Looking for the measured k el of Nc1ncnc2c1c(-c1ccc(Oc3ccccc3)cc1)nn2[C@@H]1CCCN(C(=O)C(O)CO)C1 (stereo partly shown) [Dihydrodiol Ibrutinib] , can you help?
Reply: 3.39e-05

----------
- Protocol Description: 24 h therapeutic monitoring and noncompartmental pharmacokinetics in chronic lymphocytic leukemia patients receiving IBR
- Measurement Conditions: human, plasma, oral, 420 mg, MRTEVLST MRT Extravasc to Last Nonzero Conc, subj=2 (420 mg IBR per day), steady state
Assay Endpoint: MRT (h)
Just the number please, in h, no unit attached.

Query: Looking for the measured MRT of Nc1ncnc2c1c(-c1ccc(Oc3ccccc3)cc1)nn2[C@@H]1CCCN(C(=O)C(O)CO)C1 (stereo partly shown) [Dihydrodiol Ibrutinib] , can you help?
Reply: 4.6

----------
- Protocol Description: 6 h benchtop (early preanalytical) stability in whole blood and in plasma
- Format: in vitro ADME, human
- Measurement Conditions: human, plasma (separated from spiked K3-EDTA whole blood); plasma, ambient temperature (25 °C), up to 6 h, all analyses
recovery at 9.8 ng/mL: recorded values

Molecule	Assay Endpoint	Endpoint Value
Nc1ncnc2c1c(-c1ccc(Oc3ccccc3)cc1)nn2[C@@H]1CCCN(C(=O)C(O)CO)C1 (some centres unmarked) [Dihydrodiol Ibrutinib]	recovery at 9.8 ng/mL	≥ 85%

Query: Looking for the measured recovery at 9.8 ng/mL of C=CC(=O)N1CCC[C@@H](n2nc(-c3ccc(Oc4ccccc4)cc3)c3c(N)ncnc32)C1 [Ibrutinib] , can you help?
Reply: ≥ 85%

----------
- Protocol Description: 24 h therapeutic monitoring and noncompartmental pharmacokinetics in chronic lymphocytic leukemia patients receiving IBR
- Measurement Conditions: human, plasma, oral, 280 mg/day, Conc., subj=3 (280 mg IBR per day), 23 h postdose
Assay Endpoint: concentration at 23 h
Please make sure the unit comes right after the number.

Query: Looking for the measured concentration at 23 h of Nc1ncnc2c1c(-c1ccc(Oc3ccccc3)cc1)nn2[C@@H]1CCCN(C(=O)C(O)CO)C1 (stereo partly shown) [Dihydrodiol Ibrutinib] , can you help?
Reply: 10.8 nM

----------
- Protocol Description: 24 h therapeutic monitoring and noncompartmental pharmacokinetics in chronic lymphocytic leukemia patients receiving IBR
- Measurement Conditions: human, plasma, oral, 420 mg, CLSTP Last Nonzero Conc Pred, subj=1 (420 mg IBR per day), 24 h
Assay Endpoint: concentration at 24 h

Query: Looking for the measured concentration at 24 h of Nc1ncnc2c1c(-c1ccc(Oc3ccccc3)cc1)nn2[C@@H]1CCCN(C(=O)C(O)CO)C1 (stereo partly shown) [Dihydrodiol Ibrutinib] , can you help?
Reply: 36.5 nM

----------
- Protocol Description: 24 h therapeutic monitoring and noncompartmental pharmacokinetics in chronic lymphocytic leukemia patients receiving IBR
- Measurement Conditions: human, plasma, oral, 420 mg, LAMZ Lambda z, subj=1 (420 mg IBR per day), steady state
Assay Endpoint: k el (s⁻¹)
Just the number please, in s⁻¹, no unit attached.

Query: Looking for the measured k el of Nc1ncnc2c1c(-c1ccc(Oc3ccccc3)cc1)nn2[C@@H]1CCCN(C(=O)C(O)CO)C1 (stereo partly shown) [Dihydrodiol Ibrutinib] , can you help?
Reply: 1.9e-05

----------
- Protocol Description: 24 h therapeutic monitoring and noncompartmental pharmacokinetics in chronic lymphocytic leukemia patients receiving IBR
- Measurement Conditions: human, plasma, oral, 280 mg, t1/2, Patient 3, 280 mg IBR per day, steady state
Assay Endpoint: half-life (h)
Just the number please, in h, no unit attached.

Query: Looking for the measured half-life of Nc1ncnc2c1c(-c1ccc(Oc3ccccc3)cc1)nn2[C@@H]1CCCN(C(=O)C(O)CO)C1 (stereo partly shown) [Dihydrodiol Ibrutinib] , can you help?
Reply: 5.68

----------
- Protocol Description: 24 h therapeutic monitoring and noncompartmental pharmacokinetics in chronic lymphocytic leukemia patients receiving IBR
- Measurement Conditions: human, plasma, oral, 420 mg, CMAX Max Conc, subj=1 (420 mg IBR per day), steady state
Assay Endpoint: Cmax (nM)
Just the number please, in nM, no unit attached.

Query: Looking for the measured Cmax of Nc1ncnc2c1c(-c1ccc(Oc3ccccc3)cc1)nn2[C@@H]1CCCN(C(=O)C(O)CO)C1 (stereo partly shown) [Dihydrodiol Ibrutinib] , can you help?
Reply: 185

----------
- Protocol Description: 24 h therapeutic monitoring and noncompartmental pharmacokinetics in chronic lymphocytic leukemia patients receiving IBR
- Measurement Conditions: human, plasma, oral, 280 mg, MRTEVIFP MRT Extravasc Infinity Pred, subj=3 (280 mg IBR per day), steady state
Assay Endpoint: MRT (h)
Just the number please, in h, no unit attached.

Query: Looking for the measured MRT of Nc1ncnc2c1c(-c1ccc(Oc3ccccc3)cc1)nn2[C@@H]1CCCN(C(=O)C(O)CO)C1 (stereo partly shown) [Dihydrodiol Ibrutinib] , can you help?
Reply: 5.72
